The reported measurements were obtained from ChEMBL document CHEMBL5214960.

- Test system: Dual specificity protein phosphatase 6 (Homo sapiens, UniProt Q16828)
- Sequence (Q16828 whole entry): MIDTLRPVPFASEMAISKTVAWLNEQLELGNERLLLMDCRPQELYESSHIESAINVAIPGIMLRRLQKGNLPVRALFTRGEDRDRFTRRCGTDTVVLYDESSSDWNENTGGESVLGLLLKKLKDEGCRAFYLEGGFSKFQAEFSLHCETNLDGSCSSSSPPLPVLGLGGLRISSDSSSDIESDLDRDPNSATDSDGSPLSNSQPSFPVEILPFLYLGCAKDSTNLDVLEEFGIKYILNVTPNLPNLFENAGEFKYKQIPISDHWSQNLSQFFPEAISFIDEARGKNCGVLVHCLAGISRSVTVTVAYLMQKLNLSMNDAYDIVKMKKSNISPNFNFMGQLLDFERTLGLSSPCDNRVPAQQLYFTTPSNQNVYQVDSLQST
Value kind: IC50

> print(dat)
                         query.smiles  reported.result
1  Cc1c(Br)cc(NC(=O)NS(=O)(=O)O)cc1Br          > 10 µM

###

- Experiment summary: Metabolic stability in dog hepatic microsome at 4 uM measured after 30 mins by LC-MS analysis
- Format: ADME, Canis lupus familiaris
- Experimental parameters: liver microsomes, read-out: Stability
So basically, if remaining at 0.5 h, 4 µM comes in under 40% it's 1, and if it's 40% or more it's 0.

> print(dat)
                                   compound  discrete.label
1        Cc1c(Br)cc(NC(=O)CS(=O)(=O)O)cc1Br               1
2        Cc1c(Br)cc(NC(=O)NS(=O)(=O)O)cc1Br               1
3  O=C(CS(=O)(=O)O)Nc1nc2ccc([N+](=O)[O-])cc2s1               1
4  Cc1c(Br)cc(NC(=O)C(c2ccccc2)S(=O)(=O)O)cc1Br (stereo not drawn)               0
5  O=C(Nc1nc2ccccc2s1)C(c1ccccc1)S(=O)(=O)O (stereo not drawn)               0
6          N.O=C(Nc1nc2ccccc2s1)NS(=O)(=O)O               1
7            O=C(CS(=O)(=O)O)Nc1nc2ccccc2s1               1
8   O=C(CS(=O)(=O)O)Nc1ccc(N2CCOCC2)c(Br)c1               1

###

- Test system: Tyrosine-protein phosphatase non-receptor type 13 (Homo sapiens)
- Sequence (Q12923 whole entry): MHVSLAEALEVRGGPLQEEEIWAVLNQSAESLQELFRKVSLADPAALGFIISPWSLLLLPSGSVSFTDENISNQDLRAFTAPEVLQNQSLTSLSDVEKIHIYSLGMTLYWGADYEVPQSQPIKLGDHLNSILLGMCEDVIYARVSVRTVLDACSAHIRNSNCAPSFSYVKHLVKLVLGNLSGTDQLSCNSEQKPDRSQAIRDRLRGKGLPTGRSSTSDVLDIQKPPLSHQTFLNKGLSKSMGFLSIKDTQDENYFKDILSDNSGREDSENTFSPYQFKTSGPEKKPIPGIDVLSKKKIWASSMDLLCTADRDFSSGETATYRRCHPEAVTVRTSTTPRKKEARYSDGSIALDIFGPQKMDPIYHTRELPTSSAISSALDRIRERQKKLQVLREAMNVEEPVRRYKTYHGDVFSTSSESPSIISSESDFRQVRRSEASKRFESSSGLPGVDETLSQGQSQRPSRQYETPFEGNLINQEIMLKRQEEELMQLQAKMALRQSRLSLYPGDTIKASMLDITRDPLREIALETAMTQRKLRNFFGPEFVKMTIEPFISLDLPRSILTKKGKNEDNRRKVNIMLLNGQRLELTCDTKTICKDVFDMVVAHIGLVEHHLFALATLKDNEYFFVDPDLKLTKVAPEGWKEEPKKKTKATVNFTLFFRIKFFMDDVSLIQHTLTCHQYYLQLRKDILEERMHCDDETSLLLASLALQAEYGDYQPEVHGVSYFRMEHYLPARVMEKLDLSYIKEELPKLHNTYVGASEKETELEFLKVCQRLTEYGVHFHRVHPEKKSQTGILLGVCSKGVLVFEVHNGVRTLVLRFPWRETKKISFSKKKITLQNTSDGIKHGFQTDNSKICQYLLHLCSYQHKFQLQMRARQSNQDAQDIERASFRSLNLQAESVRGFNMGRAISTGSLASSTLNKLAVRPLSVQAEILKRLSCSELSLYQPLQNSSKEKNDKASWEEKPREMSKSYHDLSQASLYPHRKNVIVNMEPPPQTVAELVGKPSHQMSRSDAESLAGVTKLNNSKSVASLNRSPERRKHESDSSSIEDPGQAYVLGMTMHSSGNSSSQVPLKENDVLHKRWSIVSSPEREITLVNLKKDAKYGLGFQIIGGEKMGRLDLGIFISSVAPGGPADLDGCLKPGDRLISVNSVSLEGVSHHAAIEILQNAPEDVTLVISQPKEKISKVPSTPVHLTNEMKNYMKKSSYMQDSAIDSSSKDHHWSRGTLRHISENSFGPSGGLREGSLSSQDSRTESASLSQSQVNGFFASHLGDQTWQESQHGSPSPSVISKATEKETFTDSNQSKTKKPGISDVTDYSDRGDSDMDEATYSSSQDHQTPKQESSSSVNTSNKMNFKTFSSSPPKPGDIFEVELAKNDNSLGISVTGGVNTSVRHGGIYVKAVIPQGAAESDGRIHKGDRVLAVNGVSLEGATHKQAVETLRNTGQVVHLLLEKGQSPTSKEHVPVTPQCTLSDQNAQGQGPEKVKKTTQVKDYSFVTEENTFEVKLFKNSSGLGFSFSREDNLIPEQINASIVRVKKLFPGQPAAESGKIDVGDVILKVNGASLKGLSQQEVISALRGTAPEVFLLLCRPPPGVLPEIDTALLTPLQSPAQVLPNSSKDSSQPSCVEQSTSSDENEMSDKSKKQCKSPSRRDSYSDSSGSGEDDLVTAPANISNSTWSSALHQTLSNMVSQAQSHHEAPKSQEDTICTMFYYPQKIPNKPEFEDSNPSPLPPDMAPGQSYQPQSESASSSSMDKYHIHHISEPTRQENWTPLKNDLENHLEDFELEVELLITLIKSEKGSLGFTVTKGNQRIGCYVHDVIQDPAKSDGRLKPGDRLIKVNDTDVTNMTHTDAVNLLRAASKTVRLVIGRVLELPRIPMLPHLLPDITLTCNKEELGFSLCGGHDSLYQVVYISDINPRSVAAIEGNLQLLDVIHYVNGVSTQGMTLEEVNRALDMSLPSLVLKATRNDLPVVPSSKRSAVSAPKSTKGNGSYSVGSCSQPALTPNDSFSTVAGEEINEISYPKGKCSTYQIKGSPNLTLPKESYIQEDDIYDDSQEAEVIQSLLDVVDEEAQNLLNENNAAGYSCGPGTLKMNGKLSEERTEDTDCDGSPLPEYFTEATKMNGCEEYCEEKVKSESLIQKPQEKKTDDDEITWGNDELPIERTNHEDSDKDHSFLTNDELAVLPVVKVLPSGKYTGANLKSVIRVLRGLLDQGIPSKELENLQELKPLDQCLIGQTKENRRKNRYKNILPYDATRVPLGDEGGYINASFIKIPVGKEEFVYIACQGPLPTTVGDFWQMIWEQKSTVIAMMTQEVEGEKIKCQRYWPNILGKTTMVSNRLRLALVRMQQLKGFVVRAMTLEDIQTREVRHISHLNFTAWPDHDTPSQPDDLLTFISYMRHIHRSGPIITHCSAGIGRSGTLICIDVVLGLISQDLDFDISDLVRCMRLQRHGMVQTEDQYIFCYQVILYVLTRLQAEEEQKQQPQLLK
pIC50: −log10 of the molar value.
Value kind: pIC50

> print(dat)
                         query.smiles                               test.system  value.kind  reported.result
1  Cc1c(Br)cc(NC(=O)NS(=O)(=O)O)cc1Br  Tyrosine-protein phosphatase non-receptor type 13 (Homo sapiens)       pIC50           < 5.00

###

- Test system: Tyrosine-protein phosphatase non-receptor type 12 (Homo sapiens)
- Sequence (Q05209 whole entry): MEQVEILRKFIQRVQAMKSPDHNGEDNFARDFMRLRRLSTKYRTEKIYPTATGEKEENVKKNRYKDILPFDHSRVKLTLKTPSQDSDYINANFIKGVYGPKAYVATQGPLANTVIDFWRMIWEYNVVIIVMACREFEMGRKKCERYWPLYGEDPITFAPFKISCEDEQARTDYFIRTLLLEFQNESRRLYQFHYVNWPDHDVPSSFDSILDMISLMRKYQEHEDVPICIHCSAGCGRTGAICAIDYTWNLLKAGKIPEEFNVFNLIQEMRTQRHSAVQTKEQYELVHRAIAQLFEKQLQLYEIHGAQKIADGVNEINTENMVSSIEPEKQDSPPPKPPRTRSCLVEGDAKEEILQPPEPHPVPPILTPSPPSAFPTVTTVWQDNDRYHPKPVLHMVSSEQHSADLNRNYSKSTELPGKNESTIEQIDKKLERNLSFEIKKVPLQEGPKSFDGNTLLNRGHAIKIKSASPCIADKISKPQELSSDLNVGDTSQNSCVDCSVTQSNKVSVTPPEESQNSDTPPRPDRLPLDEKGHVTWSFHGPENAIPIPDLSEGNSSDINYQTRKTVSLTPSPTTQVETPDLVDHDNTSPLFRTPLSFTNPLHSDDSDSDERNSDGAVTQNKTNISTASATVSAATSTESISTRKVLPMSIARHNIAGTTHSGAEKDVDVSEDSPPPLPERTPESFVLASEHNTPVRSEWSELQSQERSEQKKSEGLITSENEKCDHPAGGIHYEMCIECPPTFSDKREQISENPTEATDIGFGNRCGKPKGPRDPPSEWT
pIC50: −log10 of the molar value.
Value kind: pIC50

> print(dat)
                         query.smiles                               test.system  value.kind  reported.result
1  Cc1c(Br)cc(NC(=O)NS(=O)(=O)O)cc1Br  Tyrosine-protein phosphatase non-receptor type 12 (Homo sapiens)       pIC50           < 5.00
